Origin of the recorded values: patent US20250129078A1

molecular target: ErbB2 V777L (Homo sapiens (Human), UniProt P04626, V777L); test: ErbB enzyme assay (CisBio HTRF-KinEASE-TK), ErbB2 V777L; assay type: biochemical
Sequence (P04626 23-1255 V777L): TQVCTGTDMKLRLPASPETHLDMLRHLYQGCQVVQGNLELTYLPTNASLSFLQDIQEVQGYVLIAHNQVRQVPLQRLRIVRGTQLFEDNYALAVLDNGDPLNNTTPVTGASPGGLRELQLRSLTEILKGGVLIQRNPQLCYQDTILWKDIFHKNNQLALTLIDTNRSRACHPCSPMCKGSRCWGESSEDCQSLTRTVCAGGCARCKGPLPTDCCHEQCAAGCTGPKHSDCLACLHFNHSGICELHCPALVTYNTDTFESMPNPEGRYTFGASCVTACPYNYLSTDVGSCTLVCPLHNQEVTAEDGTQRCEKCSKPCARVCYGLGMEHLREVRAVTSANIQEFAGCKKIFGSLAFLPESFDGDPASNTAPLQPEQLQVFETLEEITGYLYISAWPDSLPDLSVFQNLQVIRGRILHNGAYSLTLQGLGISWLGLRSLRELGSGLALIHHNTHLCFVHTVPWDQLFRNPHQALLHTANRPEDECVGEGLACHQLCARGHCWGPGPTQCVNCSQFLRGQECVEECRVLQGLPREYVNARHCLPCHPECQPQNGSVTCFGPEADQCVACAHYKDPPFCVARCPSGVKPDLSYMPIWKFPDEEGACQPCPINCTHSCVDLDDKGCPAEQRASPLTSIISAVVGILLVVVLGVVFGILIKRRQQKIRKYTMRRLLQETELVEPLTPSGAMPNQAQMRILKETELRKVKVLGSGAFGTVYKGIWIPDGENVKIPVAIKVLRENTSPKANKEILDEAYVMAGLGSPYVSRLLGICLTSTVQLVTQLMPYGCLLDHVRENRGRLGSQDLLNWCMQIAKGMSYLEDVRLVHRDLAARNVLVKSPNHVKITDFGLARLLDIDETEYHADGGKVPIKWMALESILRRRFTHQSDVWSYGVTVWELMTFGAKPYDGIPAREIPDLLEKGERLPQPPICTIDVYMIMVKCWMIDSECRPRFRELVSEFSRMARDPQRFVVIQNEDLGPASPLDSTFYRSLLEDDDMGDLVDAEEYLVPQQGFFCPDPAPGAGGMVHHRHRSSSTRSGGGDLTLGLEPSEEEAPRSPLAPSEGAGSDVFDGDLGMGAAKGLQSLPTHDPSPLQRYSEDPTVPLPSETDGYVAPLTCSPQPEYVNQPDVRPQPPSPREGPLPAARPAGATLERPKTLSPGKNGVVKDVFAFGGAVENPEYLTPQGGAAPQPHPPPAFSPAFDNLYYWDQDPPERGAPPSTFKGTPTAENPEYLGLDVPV
Catalogue of IC50 readings, one per entry.

C=CC(=O)NC1CCN(c2ncc3ncnc(Nc4ccc(Oc5ccc6c(c5)nnn6C)c(C)c4)c3n2)CC1 :: 100 to 500 nM
C=CC(=O)N1CC2C(C1)N2c1ncc2ncnc(Nc3ccc(Oc4ccc5c(c4)nnn5C)c(C)c3)c2n1 (stereo not drawn) :: 500 to 1000 nM

Query the reported IC50 for ErbB2 V777L (Homo sapiens (Human), UniProt P04626, V777L); item: C=CC(=O)N[C@H]1CCCCN(c2ccc3ncnc(Nc4ccc(Oc5ccc6c(c5)nnn6C)c(C)c4F)c3n2)C1
50 to 100 nM

###

target: ErbB2 V777L (Homo sapiens (Human), UniProt P04626, V777L); assay: ErbB enzyme assay (CisBio HTRF-KinEASE-TK), ErbB2 V777L; type: biochemical
pIC50: −log10 of the molar value.
Catalogue of pIC50 readings, one per entry.

C=CC(=O)N1CC(F)(F)C12CN(c1ncc3ncnc(Nc4ccc(Oc5ccc6c(c5)nnn6C)c(C)c4)c3n1)C2 :: 7.00 to 7.30

For C=CC(=O)N1CCN(c2ccc3ncnc(Nc4ccc(Oc5ccc6c(c5)nnn6C(F)F)c(C)c4)c3n2)CC1(C)C , what is its reported pIC50?
6.30 to 7.00

For C=CC(=O)N1CCN(c2ncc3ncnc(Nc4ccc(Oc5ccc6c(c5)nnn6C)c(C)c4)c3n2)C[C@H]1C1CC1 , what is its reported pIC50?
6.30 to 7.00

For C=CC(=O)N1CCC2(C1)CN(c1ncc3ncnc(Nc4ccc(Oc5ccc6c(c5)nnn6C)c(C)c4)c3n1)C2 , what is its reported pIC50?
6.00 to 6.30

For C=CC(=O)N[C@@H]1[C@@H]2CC[C@H]1CN(c1ncc3ncnc(Nc4ccc(Oc5ccc6c(c5)nnn6C)c(C)c4)c3n1)C2 , what is its reported pIC50?
7.00 to 7.30

For C=CC(=O)N1[C@@H]2CC[C@H]1C[C@@H](Oc1ncc3ncnc(Nc4ccc(Oc5ccc6c(c5)ncn6C)c(C)c4)c3n1)C2 , what is its reported pIC50?
6.00 to 6.30

For C=CC(=O)N1CCCN(c2ncc3ncnc(Nc4ccc(Oc5cc(F)c6c(c5)ncn6C)c(C)c4F)c3n2)CC1 , what is its reported pIC50?
7.00 to 7.30

For C=CC(=O)N1CCC2(CCN(c3ccc4ncnc(Nc5ccc(Oc6ccc7c(c6)nnn7C)c(C)c5)c4n3)C2)C1 (stereo not shown) , what is its reported pIC50?
6.00 to 6.30

For C=CC(=O)N1CCN(c2ccc3ncnc(Nc4ccc(Oc5ccc6c(c5)nnn6C)c(C)c4)c3c2F)CC1 , what is its reported pIC50?
6.30 to 7.00

For C=CC(=O)N1CCN(c2ncc3ncnc(Nc4c(OC)cc(Oc5ccc6c(c5)nnn6C)c(C)c4F)c3n2)CC1 , what is its reported pIC50?
6.30 to 7.00

For C=CC(=O)N1CCN(c2ccc3ncnc(Nc4ccc(Oc5ccc6c(c5)ncn6C(F)F)c(C)c4F)c3n2)CC1(C)C , what is its reported pIC50?
6.30 to 7.00

For C=CC(=O)N1CCN(c2nc3c(Nc4ccc(Oc5ccc6c(c5)nnn6C)c(C)c4)ncnc3cc2C)CC1 , what is its reported pIC50?
6.30 to 7.00

For C=CC(=O)N[C@H]1CN(c2ccc3ncnc(Nc4ccc(Oc5ccc6c(c5)nnn6C)c(C)c4)c3n2)CC(F)(F)C1 , what is its reported pIC50?
6.30 to 7.00

For C=CC(=O)N1CCCC(c2ccc3ncnc(Nc4ccc(Oc5ccc6c(c5)nnn6C)c(C)c4)c3n2)C1 (stereo not shown) , what is its reported pIC50?
7.00 to 7.30

For C=CC(=O)N1CCN(c2ncc3ncnc(Nc4ccc(Oc5ccc6c(c5)nnn6C)c(C)c4)c3n2)C[C@@H]1C1CC1 , what is its reported pIC50?
6.30 to 7.00

For C=C1CCN([C@@H]2CCN(c3ncc4ncnc(Nc5ccc(Oc6ccn7ncnc7c6)c(C)c5)c4n3)C2)C1=O , what is its reported pIC50?
6.30 to 7.00
